- Measurement Target: mouse ATX (Mus musculus)
- Test: Amplex Red activity assay (ATX inhibition, LPC hydrolysis)
- Type: biochemical
- Conditions Used: ATX final concentration 2 nM; LPC 16:0 50 µM; 37 °C; two independent experiments; read-out: IC50 value for the inhibition of mouse ATX
The following compounds are listed with their measured pIC50 values.
The quantity pIC50 is defined as the negative base-10 logarithm of the molar concentration.

- Smiles Repr: "O=C(Nc1c2c(nn1-c1cnccn1)CSC2)c1cccc2ccccc12"
  Measurement Target: "mouse ATX (Mus musculus)"
  Recorded Measurement: 5.60

Read the next record carefully.
Log: mouse ATX (Mus musculus), compound O=C(Nc1c2c(nn1-c1ccc(Br)cc1)CSC2)c1cccc2ccccc12 , pIC50 = 4.90

These data points were gathered from patent EP4175633B1.
